Provide the recorded IC50 at 48 h for the entries that follow.
ASSAY_INFO: Cytotoxicity, Neutral Red, KB
Assay type: cell-based
CONDITION_SUMMARY: human, KB epidermal carcinoma (oral) cells, Na = not active up to 50 µg/mL
# value in µg/mL; strip the unit string

query: Returns the measured IC50 at 48 h for the input compound. Input: COc1cccc2c1C(=O)c1c(O)c3c(c(O)c1C2=O)C[C@@](O)(C(=O)CO)C[C@@H]3O[C@H]1C[C@H](N)[C@H](O)[C@H](C)O1 [Doxorubicin, reference compound]
result: 2.4

query: Any idea what its IC50 at 48 h is? The compound is C=C(C)[C@H]1CC[C@H](C)C[C@@H]1c1c(O)cc(/C=C/c2ccccc2O)cc1O [compound 6, machaeridiol B]
result: 38

----------
Give Percent displacement, CB1 for every item shown.
SYSTEM_TESTED: CB1 receptor (Homo sapiens)
Construct: expressed in transfected cells; host or cells: HEK293 (ATCC), stably transfected; membranes
Sequence (P21554 whole entry): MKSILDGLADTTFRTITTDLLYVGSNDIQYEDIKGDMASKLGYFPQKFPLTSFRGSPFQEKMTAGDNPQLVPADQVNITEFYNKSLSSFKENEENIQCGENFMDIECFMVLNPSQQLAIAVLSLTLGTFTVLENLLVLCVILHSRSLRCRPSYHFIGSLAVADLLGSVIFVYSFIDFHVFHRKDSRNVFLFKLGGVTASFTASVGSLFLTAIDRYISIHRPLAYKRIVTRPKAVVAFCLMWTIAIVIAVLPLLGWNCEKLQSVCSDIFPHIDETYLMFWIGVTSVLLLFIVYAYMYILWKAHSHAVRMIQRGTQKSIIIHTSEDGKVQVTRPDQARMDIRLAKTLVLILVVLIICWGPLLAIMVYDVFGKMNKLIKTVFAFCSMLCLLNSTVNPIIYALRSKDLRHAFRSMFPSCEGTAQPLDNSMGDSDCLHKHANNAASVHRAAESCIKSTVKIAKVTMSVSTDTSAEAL
ASSAY_INFO: Competitive radioligand binding assay, CB1
CONDITION_SUMMARY: 10 μM; [3H]-CP55,940
Protocol: HEK293 cells stably transfected with δ, κ and μ opioid subtypes were a generous gift from Roth Laboratories (University of North Carolina at Chapel Hill, N.C., USA). CB and opioid cells were maintained as previously described. […] Cannabinoid and opioid competitive radioligand binding assays were performed as previously described. […] The percent displacement was calculated to represent the ability of the samples to displace the radioligand binding for a given cannabinoid or opioid receptor subtype. […]
Only the number, expressed in %, is required.

query: # get_value(readout='Percent displacement, CB1', item= C[C@@H]1C[C@@H]2c3c(O)cc(-c4cc5ccccc5o4)cc3OC(C)(C)[C@H]2C[C@H]1O )
result: 4.5

query: Reported Percent displacement, CB1, compound C=C(C)[C@H]1CC[C@H](C)C[C@@H]1c1c(O)cc(/C=C/c2ccccc2)cc1O : ____
result: 7.8

query: Query: Percent displacement, CB1; subject: C[C@H]1CC[C@H]2[C@H](C1)c1c(O)cc(/C=C/c3ccccc3)cc1OC2(C)C
result: 18.4

query: Could you share which Percent displacement, CB1 value was measured for C[C@H]1CC[C@H]2[C@H](C1)c1c(O)cc(/C=C/c3ccccc3O)cc1OC2(C)C ?
result: 43.6

query: Fill blank: measured Percent displacement, CB1 of the compound C=C(C)[C@H]1CC[C@H](C)C[C@@H]1c1c(O)cc(/C=C/c2ccccc2O)cc1O is ____.
result: 45.2

----------
Provide the reported Ki of each item.
SYSTEM_TESTED: μ opioid receptor (Homo sapiens, UniProt P35372)
Construct: host or cells: HEK293, stably transfected; membranes
Sequence (P35372 whole entry): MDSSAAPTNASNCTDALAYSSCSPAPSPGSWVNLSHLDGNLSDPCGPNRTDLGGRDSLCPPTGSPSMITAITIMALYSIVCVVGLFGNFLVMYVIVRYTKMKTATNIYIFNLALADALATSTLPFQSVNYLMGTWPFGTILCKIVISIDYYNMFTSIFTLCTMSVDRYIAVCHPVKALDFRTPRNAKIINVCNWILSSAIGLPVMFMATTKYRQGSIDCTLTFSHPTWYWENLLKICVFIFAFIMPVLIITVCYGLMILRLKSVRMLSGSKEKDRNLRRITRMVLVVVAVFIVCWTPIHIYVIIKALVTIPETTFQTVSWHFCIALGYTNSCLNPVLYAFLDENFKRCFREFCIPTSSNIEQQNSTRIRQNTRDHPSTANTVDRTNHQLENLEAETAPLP
ASSAY_INFO: biochemical
Format: binding
CONDITION_SUMMARY: NA = not active; read-out: μ Ki ± SEM
Reply numerically in µM, unit not repeated.

query: Request: Ki, test system μ opioid receptor (Homo sapiens, UniProt P35372), entry C=C(C)[C@H]1CC[C@H](C)C[C@@H]1c1c(O)cc(/C=C/c2ccccc2)cc1O
result: 16.8

query: Lab note: need Ki for C=C(C)[C@H]1CC[C@H](C)C[C@@H]1c1c(O)cc(-c2cc3ccccc3o2)cc1O on μ opioid receptor (Homo sapiens, UniProt P35372), anyone have it?
result: 4.01

query: Look up Ki with μ opioid receptor (Homo sapiens, UniProt P35372) for this compound: C=C(C)[C@H]1CC[C@H](C)C[C@@H]1c1c(O)cc(/C=C/c2ccccc2O)cc1O
result: 4.73
